Test system: MS2 coat protein
Experiment: apparent Kd, MS2 coat protein; higher = weaker binding; RNA-MaP array; tryptophan 2.4 mM where present
Conditions: designed as: OFF switch for tryptophan; no ligand
Below, each of the sequences is paired with its reported apparent Kd value.

{"POLYMER_SEQUENCE": "UAACAUGAGGAUCACCCAUGUAAACUAAGUCGAGGACCGGUACGGCCGCCACUCGAAAUUGAAGAAUUGGCGGAAAAUGUAUGUU", "apparent Kd [nM]": 13.9}
{"POLYMER_SEQUENCE": "UAAUGCAUGACGGCCGCCACUAGAACAUGAGGAUCACCCAUGUACGGCGGCCGUCAUGGGUGGACUAGGACCGGGUCAUGCAUAU", "apparent Kd [nM]": 9.23}
{"POLYMER_SEQUENCE": "GGAAUAAUGGCGGCCGCCACUAACUCAUAUACAUCAUGUACAUGAGGAUCACCCAUGUAGGUGUAUAGGACCGGGCCAUAAUUCC", "apparent Kd [nM]": 22.4}
{"POLYMER_SEQUENCE": "UGUCGUAGACAUGAGGAUCACCCAUGUCCACGAGGACCGGUACGGCCGCCACUCGGGAUAUAAACCGUUACGGGUGGGUGGUGUU", "apparent Kd [nM]": 18.8}
{"POLYMER_SEQUENCE": "CCUAUGCAGUCGGCCGCCACUGAGUCCUCAAUAAUAAAUUAAUAUACAUGAGGAUCACCCAUGUACAGGACCGGGACUGUAUAGG", "apparent Kd [nM]": 205}
{"POLYMER_SEQUENCE": "UAAUCCGGUCCUCGAUAACAUGGGUGAAUACGAGGACCGGUACGGCCGCCACUCGAUAACAUGAGGAUCACCCAUGUAAUAAUAA", "apparent Kd [nM]": 85.7}
{"POLYMER_SEQUENCE": "UAUAUAUACUCGGCCGCCACUGAGAGAGUCAUGUAAACAUGAGGAUCACCCAUGUAAUAUAUAUACAGGACCGGGAGUAUAUUAA", "apparent Kd [nM]": 15.7}

Attribution: the EternaBench riboswitch data
